Experiment: Phase solubility study of DRV in aqueous carrier solutions
assay_metric: solubility at 72 h (µg/mL)
Response body: numeric value in µg/mL, unit text excluded.

Asked: Any idea what solubility at 72 h was measured for `CC(C)CN(C[C@@H](O)[C@H](Cc1ccccc1)NC(=O)O[C@H]1CO[C@H]2OCC[C@H]21)S(=O)(=O)c1ccc(N)cc1` ?
Given back: 150

###

Experiment: Oral pharmacokinetic study, fasted and fed state
Conditions: male, albino Wistar, rat, in vivo, po, 70 mg/kg
assay_metric: Tmax (h)
Response body: numeric value in h, unit text excluded.

Asked: Any idea what Tmax was measured for `CC(C)CN(C[C@@H](O)[C@H](Cc1ccccc1)NC(=O)O[C@H]1CO[C@H]2OCC[C@H]21)S(=O)(=O)c1ccc(N)cc1` ?
Given back: 1
